biological target: DENV-4 VLP (Dengue virus serotype 4, strain …, UniProt P09866 114-774)
assay-readout: Response (nm)
All answers are understood in nm, so give the number only.

Query: For the binder DENV4-9G8 (antibody, V domains shown, also called Clone 9G8) VH: QSLEESGGGLVKPGASLTLTCTASGFSFSYRYWMSWVRQAPGKRPEWIACIDTGNGDTYYASRAKGRFTIMKTSSTTVTLQMTSLTVADTATYFCARSDVTLTGYGYGNLWGPGTLVTVSS VL: DSVMTQTPASVSEPVGGTVTINCQASHNIYNSLAWYQQKPGQPPKLLIYRASTLESGVPSRVKGSGYGTEYTLTISDLECADAATYYCQQYYGGDDDGFGFGGGTEVVVK , what Response (nm) is on record?
Reply: 0.137

Query: For the binder DENV4-5B11 (antibody, V domains shown, also called Clone 5B11) VH: QSVEESGGRLVTPGTPLTLTCTVSGFSLSDSAMSWVRQAPGKGLEWIGYIYAGSGTTYYASWAKGRFTISKTSTTVDLKITSPTTEDTATYFCARATAYVGYGYGDDTFDPWGPGTLVTVSS VL: AYDMTQTPASVEVAVGGTVTIKCQASQSISSYLSWYQQKPGQRPKLLIYRASTLASGVSSRFKGSGSGTEFTLTISGVQCDDAATYYCQQGYSNSDVDNVFGGGTEVVVK , what Response (nm) is on record?
Reply: 2.39

Query: For the binder DENV4-7D5 (antibody, V domains shown, also called Clone 7D5) VH: QSVEESGGRLVTPGTPLTLTCTVSGIDLSSWEMGWVRQAPGKGLEWIGIIFPSGTIYYANWAKGRFAISKASTTVDLKITSPTTEDTATYFCGRHGGSLYLNIWGPGTLVTVSL VL: AQVLTQTPSPVSAAVGGTVTINCQASQSVYVNRNLAWYQQKPGQPPKVLIYEASKLASGVPSRFKGSGSGTQFTLTISGVQCDDAATYYCQGEFGCSSADCIAFGGGTEVVVK , what Response (nm) is on record?
Reply: 2.45

Query: For the binder DENV4-8C7 (antibody, V domains shown, also called Clone 8C7) VH: QSVEESGGRLVTPGTPLTLTCTVSGIDLSSYEMGWVRQAPGKGLEWIGIIFPSGTIYYANWAKGRFTISKTSTTVDLKITSPTTEDTATYFCGRHGGSLYLNIWGPGTLVTVSL VL: AQVLTQTPSPVSAAVGGTVTINCQASQSVYVNRNLAWYQQKPGQPPKVLIYEASKLASGVPSRFKGSGSGTQFTLTISGVQCDDAATYYCQGEFGCSSADCIAFGGGTEVVVK , what Response (nm) is on record?
Reply: 2.38

Query: For the binder DENV4-10A11 (antibody, V domains shown, also called Clone 10A11; 10A1l) VH: QSVEESGGRLVTPGTPLTLTCTVSGINLSFYAMGWVRQAPGKGLECVGFIDTDNSAYYASWAKGRFTISKTSTTVDLKITSPTTEDTATYFCARSLSSFYDWDAFDPWGPGTLVTVSS VL: AYDMTQTPASVEVAVGGTVTIKCLASQSISNLLAWYQQKPGQRPKLLIYRASTLASGVPSRFKGSGSGTQFTLTISGVECADAATYYCQQGASNSDIDNAFGGGTEVVVK , what Response (nm) is on record?
Reply: 2.17
